Measured growth inhibition of individual entries
# TEST_NAME: NCI Yeast Anticancer Drug Screen. Data for the rad50 strain (AID 155);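 further: 0% = growth of vehicle-only cultures of the same strain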
# CONDITION_CONTEXT: S. cerevisiae rad50 strain growth inhibition; at 5.0 µM (retest, dose inferred, filed as 0.5); stronger effect = higher value
The panel holds about 79,000 compounds, 15% with a hit somewhere; the sample as a whole holds those more often.
Give just the numeric value; % need not be written.

| MOLECULE | DATA_VALUE |
| --- | --- |
| COc1ncc(Br)cc1C(=O)NCCc1ccc(S(=O)(=O)NC(=O)NC2CCCCC2)cc1 | 4 |

// query // fetch growth inhibition given entry CC(C)(C)OC(=O)CSC#N
// result 11

// query // fetch growth inhibition given entry CC(C)C(OC(=O)c1ccc(NCC2=CC(=O)C=CC2=O)cc1)C(C)C
// result 22

// query // fetch growth inhibition given entry Oc1ccccc1N=CC1CCCCC1
// result -61

// query // fetch growth inhibition given entry NC(CSSCC(N)C(=O)Nc1ccc2ccccc2c1)C(=O)Nc1ccc2ccccc2c1 (configuration not stated)
// result 42

// query // fetch growth inhibition given entry CC(=O)N=C1N(/C=C2\C(=O)Oc3ccccc3C2=O)C(=O)/C(=C/c2ccc(Cl)cc2Cl)N1C
// result 1

// query // fetch growth inhibition given entry CCCCCC(=O)NNc1ccccc1
// result 18

Entry source: PubChem BioAssay (NCI)
